test: qHTS Assay for Lipid Storage Modulators in Drosophila S3 Cells; details: BODIPY lipid droplet fluorescence, 18-24 h, cells fed with added oleic acid; series mostly up to 46.1 µM; further: potency means the concentration at half of the fitted maximal effect
Among all 320,000 compounds or so, about 2,100 (0.66%) were called active. Inconclusive results (about 53%) are left out. The entries come from a sample that favours actives as a whole.
VALUE_TYPE: Potency

Examples from the recorded data:
> print(dat)
                                   compound   observed.result
1  COc1cccc(CNC(=O)Cn2c(=O)n(CCC(=O)N3CCCCC3)c(=O)c3sccc32)c1  4.11 µM (active)
2  COc1ccccc1NC(=O)CCCNC(=O)Cn1cnc2sc(C)c(C)c2c1=O          inactive
3  O=C(c1ccco1)N1CCN(S(=O)(=O)c2cccc([N+](=O)[O-])c2)CC1          inactive
4  CN(C)c1ccc(/C=C/C(=O)c2ccc3c(c2)OCCO3)cc1[N+](=O)[O-]          inactive
5  O=C(c1ccccc1)N(Cc1ccc(F)cc1)Cc1nc2ccccc2c(=O)[nH]1          inactive
6  Cc1ccccc1-n1ncc2c1CC(C)(C)CC2NC(=O)CCC(F)(F)F (centres undefined)          inactive
7           Cc1ccc(C(=O)OCC(=O)N2CCOCC2)cc1          inactive
8  COc1ccccc1N1CCN(C(=O)/C=C/c2cccc([N+](=O)[O-])c2)CC1          inactive

Exercise: Query: Potency; subject: N#CC(c1ccc(F)cc1)c1ccc(C(=O)c2ccccc2)cc1 (centres undefined)
Key: inactive

Exercise: Query: Potency; subject: CCOc1ccc(NC(=O)CNS(=O)(=O)c2c(C)cc(C)cc2C)cc1
Key: 0.92 µM (active)

Exercise: Query: Potency; subject: CC(=O)Nc1ccc(C(=O)NNC(=O)c2ccc(Cl)cc2)cc1
Key: inactive

Exercise: Query: Potency; subject: COc1cc([N+](=O)[O-])ccc1N/C=C/C(=O)c1cccs1
Key: 11.6 µM (active)

Exercise: Query: Potency; subject: COc1cc(C(=O)O)ccc1OCC(=O)N1CCOCC1
Key: inactive

Exercise: Query: Potency; subject: Cc1nc2sc3c(c2c(=O)o1)CCCC3
Key: 29.1 µM (active)

Exercise: Query: Potency; subject: COc1ccc(OC)c(NC(=O)CCCNC(=O)Cn2cnc3sc(C)c(C)c3c2=O)c1
Key: 3.66 µM (active)

Exercise: Query: Potency; subject: CCOC(=O)c1csc(NC(=O)C(C)(C)C)n1
Key: inactive

Exercise: Query: Potency; subject: O=C(/C=C/c1cccc([N+](=O)[O-])c1)N1CCN(c2ccc(F)cc2)CC1
Key: 20.6 µM (active)

Exercise: Query: Potency; subject: COc1ccc(CC(=O)OCC(=O)Nc2ccc(C(=O)Nc3ccc(OC)cc3)cc2)cc1
Key: inactive

Exercise: Query: Potency; subject: O=c1oc(-c2ccccc2)nc2sc3c(c12)CCCC3
Key: inactive

Exercise: Query: Potency; subject: CC(C)Oc1ccc(C(=O)N2CCN(C(=O)c3ccco3)CC2)cc1
Key: inactive

From: PubChem BioAssay AID2685
